- measured target: Aryl hydrocarbon receptor (Homo sapiens)
- Sequence (P35869 whole entry): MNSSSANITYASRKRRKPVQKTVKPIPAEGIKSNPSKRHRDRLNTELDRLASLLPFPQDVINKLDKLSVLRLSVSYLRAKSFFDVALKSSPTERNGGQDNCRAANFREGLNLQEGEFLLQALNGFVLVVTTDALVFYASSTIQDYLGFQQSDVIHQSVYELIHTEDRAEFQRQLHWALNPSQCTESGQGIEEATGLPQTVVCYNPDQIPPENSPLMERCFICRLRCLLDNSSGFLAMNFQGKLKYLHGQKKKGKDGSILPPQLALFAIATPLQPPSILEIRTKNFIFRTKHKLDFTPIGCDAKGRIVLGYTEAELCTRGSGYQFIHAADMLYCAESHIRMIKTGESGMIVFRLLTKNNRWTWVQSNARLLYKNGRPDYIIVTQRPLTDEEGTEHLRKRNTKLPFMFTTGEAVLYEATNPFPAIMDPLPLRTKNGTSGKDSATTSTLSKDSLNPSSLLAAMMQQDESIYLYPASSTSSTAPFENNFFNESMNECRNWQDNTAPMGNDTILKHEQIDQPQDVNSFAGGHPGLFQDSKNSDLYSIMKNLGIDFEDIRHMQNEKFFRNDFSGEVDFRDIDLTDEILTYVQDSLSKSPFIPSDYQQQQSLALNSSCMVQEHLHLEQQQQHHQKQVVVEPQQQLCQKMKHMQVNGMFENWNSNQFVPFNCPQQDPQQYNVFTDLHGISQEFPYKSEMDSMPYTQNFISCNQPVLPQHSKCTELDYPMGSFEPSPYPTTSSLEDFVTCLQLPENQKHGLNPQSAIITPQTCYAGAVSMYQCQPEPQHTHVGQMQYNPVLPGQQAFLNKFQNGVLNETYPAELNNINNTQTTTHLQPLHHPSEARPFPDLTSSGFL
- measurement notes: Agonist activity at AhR in human HepG2 cells co-transfected with pSELECT-zeo-Lucia and CYP1A1 assessed as induction of receptor transactivation incubated for 24 hrs by luciferase reporter gene assay
- Type: cell-based
outcome measure: EC50

[ask] // fetch EC50 given entry Cc1ccc(C(c2ccccn2)c2ccccc2O)cc1 (centres undefined)
[reply] > 100 µM

[ask] // fetch EC50 given entry CC(=O)Oc1ccc(C(c2ccc(Cl)cc2)c2ccccn2)cc1 (centres undefined)
[reply] > 1000 µM

[ask] // fetch EC50 given entry Oc1ccccc1C(c1ccc(F)cc1)c1ccccn1 (centres undefined)
[reply] > 1000 µM

[ask] // fetch EC50 given entry "CC(=O)Oc1ccc(C(c2ccc(OC(C)=O)cc2)c2ccccn2)cc1"
[reply] > 1000 µM

[ask] // fetch EC50 given entry Cc1ccc(C(c2ccc(O)cc2)c2ccccn2)cc1 (centres undefined)
[reply] > 100 µM

[ask] // fetch EC50 given entry COc1ccc(C(O)(c2ccc(C(F)(F)F)cc2)c2ccccn2)cc1 (centres undefined)
[reply] 52 µM

[ask] // fetch EC50 given entry CC(=O)Oc1ccc(C(c2ccccn2)c2c(OC(C)=O)ccc3ccccc23)cc1 (centres undefined)
[reply] > 200 µM

[ask] // fetch EC50 given entry CC(=O)Oc1ccc(C(c2ccc(C)cc2)c2ccccn2)cc1 (centres undefined)
[reply] > 100 µM

[ask] // fetch EC50 given entry COc1ccc(C(c2ccccn2)c2cccs2)cc1 (centres undefined)
[reply] > 50 µM

[ask] // fetch EC50 given entry CC(=O)Oc1ccc(C(c2ccc(Br)cc2)c2cccc[n+]2[O-])cc1 (centres undefined)
[reply] > 100 µM

[ask] // fetch EC50 given entry CC(=O)Oc1ccc(C(c2ccc(Cl)cc2)c2cccc[n+]2[O-])cc1 (centres undefined)
[reply] > 200 µM

[ask] // fetch EC50 given entry CC(C)(C)c1ccc(C(c2ccccn2)c2ccccc2O)cc1 (centres undefined)
[reply] > 1000 µM

[ask] // fetch EC50 given entry CC(=O)Oc1ccc(C(c2ccc(Br)cc2)c2ccccn2)cc1 (centres undefined)
[reply] > 1000 µM

[ask] // fetch EC50 given entry Oc1ccc(C(c2ccc(Cl)cc2)c2ccccn2)cc1 (centres undefined)
[reply] > 100 µM

[ask] // fetch EC50 given entry Oc1ccc(C(c2ccc(Br)cc2)c2ccccn2)cc1 (centres undefined)
[reply] > 100 µM

[ask] // fetch EC50 given entry COc1ccc(C(c2ccccn2)c2c[nH]c3ccccc23)cc1 (centres undefined)
[reply] 21.7 µM

[ask] // fetch EC50 given entry Oc1ccccc1C(c1ccc(Cl)cc1)c1ccccn1 (centres undefined)
[reply] > 1000 µM

[ask] // fetch EC50 given entry CC(=O)Oc1ccc(C(c2ccc(C)cc2)c2cccc[n+]2[O-])cc1 (centres undefined)
[reply] > 200 µM

[ask] // fetch EC50 given entry COc1ccc(C(c2ccccn2)n2nnc3ccccc32)cc1 (centres undefined)
[reply] > 100 µM

[ask] // fetch EC50 given entry CC(=O)Oc1ccc(C(c2ccc(F)cc2)c2ccccn2)cc1 (centres undefined)
[reply] > 100 µM

[ask] // fetch EC50 given entry CC(=O)Oc1ccc(C(c2ccc(F)cc2)c2cccc[n+]2[O-])cc1 (centres undefined)
[reply] > 1000 µM

[ask] // fetch EC50 given entry Oc1ccc(C(c2ccc(F)cc2)c2ccccn2)cc1 (centres undefined)
[reply] > 400 µM

[ask] // fetch EC50 given entry Oc1ccccc1C(c1ccc(Br)cc1)c1ccccn1 (centres undefined)
[reply] > 1000 µM

[ask] // fetch EC50 given entry CC(=O)Oc1ccc(C(c2ccccn2)n2nnc3ccccc32)cc1 (centres undefined)
[reply] > 100 µM
